# maps each entry to its glycan array binding signal (z-score)
test.target: Neu5Ac(a2-6)GlcNAc(b1-4)GlcNAc(b1-4)GlcNAc
experiment.summary: glycan array binding signal (z-score within array); higher = stronger binding
condition.notes: glycan notation: IUPAC condensed, linker removed
The entries come from a sample that favours the strongest signals as a whole.
property.measured: glycan array binding signal (z-score)

{"binder": "MSMEG3662-2a (Mycobacterium smegmatis), A0QYH7_MYCS2 (protein) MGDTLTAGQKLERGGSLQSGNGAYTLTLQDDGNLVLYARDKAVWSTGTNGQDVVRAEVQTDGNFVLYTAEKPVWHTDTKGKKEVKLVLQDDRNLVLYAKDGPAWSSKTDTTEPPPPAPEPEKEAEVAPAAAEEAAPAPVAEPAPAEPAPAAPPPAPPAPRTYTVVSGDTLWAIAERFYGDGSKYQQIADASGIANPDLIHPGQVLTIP", "quantitative.readout": 1.58}
{"binder": "SJA (Sophora japonica) (protein) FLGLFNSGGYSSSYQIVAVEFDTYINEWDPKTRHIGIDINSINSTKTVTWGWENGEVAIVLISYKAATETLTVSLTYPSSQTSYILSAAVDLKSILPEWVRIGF", "quantitative.readout": -0.288}
{"binder": "MXA PilAct-eGFP (Myxococcus xanthus), Q59589 (protein) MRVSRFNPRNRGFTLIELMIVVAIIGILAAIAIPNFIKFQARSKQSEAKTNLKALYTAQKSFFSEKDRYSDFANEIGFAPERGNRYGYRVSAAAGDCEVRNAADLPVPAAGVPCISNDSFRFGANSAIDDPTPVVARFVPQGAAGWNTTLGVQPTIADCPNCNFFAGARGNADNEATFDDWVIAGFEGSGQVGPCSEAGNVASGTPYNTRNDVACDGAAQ", "quantitative.readout": -0.645}
